# Assay details: Trans-scleral diffusion in 2 chamber perfusion apparatus (HPLC readout)
# Format: in vitro ADME, human
# Condition details: solution C: 3.3 μM CAI in 10% EtOH (90% BSS), 24 hour sampling, human sclera, n=4; read-out: permeability constant (mean±SE)
Test readout: Papp at 24 h, 3.3 μM (×10⁻⁶ cm/s)

sample_smiles=NC(=O)c1nnn(Cc2cc(Cl)c(C(=O)c3ccc(Cl)cc3)c(Cl)c2)c1N value_units="×10⁻⁶ cm/s" reported_result=4.16

###

# Assay details: Trans-scleral diffusion in 2 chamber perfusion apparatus (HPLC readout)
# Format: in vitro ADME, human
# Condition details: solution B: 4.1 μM CAI in 10% DMSO (90% BSS), human sclera, n=7; read-out: permeability constant (mean±SE)
Test readout: Papp at 8 h, 4.1 μM

sample_smiles=NC(=O)c1nnn(Cc2cc(Cl)c(C(=O)c3ccc(Cl)cc3)c(Cl)c2)c1N reported_result="5.5 ×10⁻⁶ cm/s"

Hey, just so you know, these numbers are from patent US7276050B2.
